Values were extracted from ChEMBL document CHEMBL4373687.

Target: Cannabinoid receptor 2 (Homo sapiens)
Sequence (P34972 whole entry): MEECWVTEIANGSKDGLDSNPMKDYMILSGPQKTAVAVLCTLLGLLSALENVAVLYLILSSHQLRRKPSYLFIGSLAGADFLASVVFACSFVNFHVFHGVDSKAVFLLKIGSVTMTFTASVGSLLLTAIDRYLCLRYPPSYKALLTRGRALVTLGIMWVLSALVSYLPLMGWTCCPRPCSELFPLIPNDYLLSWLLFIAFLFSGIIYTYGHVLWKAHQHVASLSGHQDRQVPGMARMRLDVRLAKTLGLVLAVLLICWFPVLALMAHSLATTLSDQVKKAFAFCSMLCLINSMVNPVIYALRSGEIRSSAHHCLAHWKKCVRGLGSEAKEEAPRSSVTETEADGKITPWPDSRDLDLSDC
Assay: Agonist activity at human CB2-receptor expressed in CHO-K1 cells coexpressing G-alpha16 at 10 uM by Fluo-4-AM dye based calcium mobilization assay
Assay type: functional, cell-based
Recorded measurements of Activity, one per entry

{"columns": ["chemical-smiles", "Activity"],
 "data": [
  ["O=C(NC12CC3CC(CC(C3)C1)C2)c1cc2cccnc2[nH]1", "> 50%"],
  ["O=C(NC12CC3CC(CC(C3)C1)C2)c1c[nH]c2ccncc12", "< 50%"],
  ["O=C(NC12CC3CC(CC(C3)C1)C2)c1n[nH]c2ccccc12", "> 50%"],
  ["CCCCCn1cc(C(=O)NC23CC4CC(CC(C4)C2)C3)c2cnccc21", "< 50%"]
]}
